Assay: Single dose pharmacokinetics and bioavailability study
Format: in vivo, male C57BL/6 mice
Conditions: male, C57BL/6, iv; mouse, KH176 2 mg/kg i.v., plasma
REPORTED_ENDPOINT: half-life (h)

compound="Cc1c(C)c2c(c(C)c1O)CC[C@@](C)(C(=O)N[C@@H]1CCCNC1)O2.Cl [KH176]" observed_measurement=1.4

###

Assay: 28-day repeat oral dose toxicity study, toxicokinetics
Type: in vivo, Beagle dogs
Settings: female, Beagle, dog, plasma, po, 10 mg/kg, KH176 10 mg/kg/dose BID oral, F, Day 1, plasma
REPORTED_ENDPOINT: half-life (h)

smiles_input=Cc1c(C)c2c(c(C)c1O)CC[C@@](C)(C(=O)N[C@@H]1CCCNC1)O2.Cl reported_endpoint=half-life observed_measurement=1.4
